For each record, write down the corresponding pEC50.
target: human TLR7 (Homo sapiens (Human), UniProt Q9NYK1); test: HEK-Blue TLR7 reporter assay (TLR7 agonist activity); conditions: HEK-Blue TLR7 cells, SEAP reporter, 18 h treatment; read-out: TLR7 Agonism (EC50)
Sequence (Q9NYK1 27-1049): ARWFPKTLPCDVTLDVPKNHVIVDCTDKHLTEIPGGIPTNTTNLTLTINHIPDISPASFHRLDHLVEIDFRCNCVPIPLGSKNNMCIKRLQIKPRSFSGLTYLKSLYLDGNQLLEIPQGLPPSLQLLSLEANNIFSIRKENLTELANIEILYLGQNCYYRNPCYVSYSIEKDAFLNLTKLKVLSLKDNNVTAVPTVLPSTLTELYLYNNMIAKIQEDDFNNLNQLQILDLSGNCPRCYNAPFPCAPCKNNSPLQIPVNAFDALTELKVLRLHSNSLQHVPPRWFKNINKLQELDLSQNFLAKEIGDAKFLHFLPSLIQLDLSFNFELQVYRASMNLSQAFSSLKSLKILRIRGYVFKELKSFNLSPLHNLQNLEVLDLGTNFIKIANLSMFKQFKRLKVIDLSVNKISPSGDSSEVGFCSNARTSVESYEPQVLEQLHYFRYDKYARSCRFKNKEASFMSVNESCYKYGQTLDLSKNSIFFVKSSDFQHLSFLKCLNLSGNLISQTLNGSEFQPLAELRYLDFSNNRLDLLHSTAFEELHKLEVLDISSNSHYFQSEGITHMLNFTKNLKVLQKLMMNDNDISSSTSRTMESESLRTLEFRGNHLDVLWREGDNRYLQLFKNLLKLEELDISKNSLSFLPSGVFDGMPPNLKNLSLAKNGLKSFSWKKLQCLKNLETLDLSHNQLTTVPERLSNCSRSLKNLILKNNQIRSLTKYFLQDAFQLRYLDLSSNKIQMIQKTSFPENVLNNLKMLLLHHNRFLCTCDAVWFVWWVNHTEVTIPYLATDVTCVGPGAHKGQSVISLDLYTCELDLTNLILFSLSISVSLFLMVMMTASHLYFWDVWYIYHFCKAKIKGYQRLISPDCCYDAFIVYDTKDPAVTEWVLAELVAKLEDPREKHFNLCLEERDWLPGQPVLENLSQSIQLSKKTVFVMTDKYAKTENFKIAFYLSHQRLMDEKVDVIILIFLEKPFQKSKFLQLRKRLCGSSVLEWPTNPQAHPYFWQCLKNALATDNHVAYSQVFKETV
Numbers only, as −log10 of the molar value.

# example entries with known answers
CCCCOc1nc(N)c2nc(O)n(Cc3ccc4c(c3)Sc3cc(CNC(C)C)ccc3N4C)c2n1 [Ia-02] : 8.33
CCCCOc1nc(N)c2nc(O)n(Cc3ccc4c(c3)Sc3cc(CNC5CCC5)ccc3N4C)c2n1 [Ia-06] : 7.03

Each molecule below has a recorded value; state its pEC50.
1. CCCCOc1nc(N)c2nc(O)n(Cc3ccc4c(c3)Sc3cc(CO)ccc3N4C)c2n1 [Ia-01]
2. CCCCOc1nc(N)c2nc(O)n(Cc3ccccc3)c2n1 [Compound B, reference compound]

Result:
7.30
6.32

###

target: human TLR7 (Homo sapiens (Human), UniProt Q9NYK1); test: HEK-Blue TLR7 reporter assay (TLR7 agonist activity); conditions: HEK-Blue TLR7 cells, SEAP reporter, 18 h treatment; read-out: TLR7 Agonism (EC50)
For each record, write down the corresponding log10(EC50).
The figures below represent log10 of EC50, where EC50 is stated in nM.

CCCCOc1nc(N)c2nc(O)n(Cc3ccc4c(c3)Sc3cc(CNC5COC5)ccc3N4C)c2n1 : 2.76
CCCCOc1nc(N)c2c(n1)N(Cc1cccc(CN3CCCC3)c1)CC(=O)N2 [Vesatolimod, vesatolimod, reference compound] : 3.08

Each compound below has a recorded value; state its log10(EC50).
1. CCCCOc1nc(N)c2nc(O)n(Cc3ccc4c(c3)Sc3cc(CNCc5ccncc5)ccc3N4C)c2n1
2. CCCCOc1nc(N)c2nc(O)n(Cc3ccc4c(c3)Sc3cc(CNC)ccc3N4C)c2n1
3. CCCCOc1nc(N)c2nc(O)n(Cc3ccc4c(c3)Sc3cc(CNCc5ccccc5)ccc3N4C)c2n1

Result:
[0.90, 1.59, 0.93]

###

system: interleukin 6 (IL-6); test: Interleukin 6 induction assay in human whole blood; format: cell-based; conditions: 37° C., 20 h, AlphaLISA
pEC50: −log10 of the molar value.
Cut-off 8 on pEC50, inclusive. At or above means y; below means n.

CCCCOc1nc(N)c2nc(O)n(Cc3ccc4c(c3)Sc3cc(CNC(C)C)ccc3N4C)c2n1 : y

Request: Could you please find out whether CCCCOc1nc(N)c2nc(O)n(Cc3ccc4c(c3)Sc3cc(CNC5CCC5)ccc3N4C)c2n1 has pEC50 that meets 8 or exceeds it?
Result: n

Request: Could you please find out whether CCCCOc1nc(N)c2nc(O)n(Cc3ccc4c(c3)Sc3cc(CO)ccc3N4C)c2n1 has pEC50 that meets 8 or exceeds it?
Result: n

Request: Could you please find out whether CCCCOc1nc(N)c2nc(O)n(Cc3ccc4c(c3)Sc3cc(CNC)ccc3N4C)c2n1 has pEC50 that meets 8 or exceeds it?
Result: n
